I'd appreciate it if you could supply GI50 values for the items below.
system: 786-0; assay: NCI tumour cell line growth inhibition, 48 h
Active and inactive are the calls of the source. Cut-off read from the data, not from the text of the source: active = GI50 up to about 1.1 µM and inactive = higher.

Record excerpt, results attached:
[ask] Check the records and state GI50 for COC(=O)C1=C(C)NC(C)=C(C(=O)OC)C1c1ccc(/[N+]([O-])=C/c2ccccc2)cc1
[reply] 17.3 µM (inactive)

[ask] Return GI50 (reported value) for this compound: CCNc1nnc(CSc2nc(-c3ccccc3)c(-c3ccccc3)[nH]2)s1
[reply] 24.4 µM (inactive)

[ask] Identify the reported GI50 for the following entry. N[C@H]1c2c(Br)sc(Br)c2C(=O)[C@H]1O
[reply] 18.6 µM (inactive)

Fill in GI50 for each of the 2 compounds listed.
1. Cc1c(/C=N/NS(=O)(=O)c2ccccc2)no[n+]1[O-]
2. N#C/N=C(/N)NCc1ccccc1

[reply]
["> 100 µM (inactive)", "> 100 µM (inactive)"]

Give GI50 for all compounds that follow.
1. CC1CC[C@@]2(OC1)OC1C[C@H]3[C@@H]4CC=C5CC(OC6OC(CO)C(OC7OC(CO)C(O)C(OC8OCC(O)C(O)C8O)C7OC7OC(CO)C(OC8OC(C)C(OC9OC(C)C(O)C(O)C9O)C(O)C8O)C(O)C7O)C(O)C6O)CCC5(C)[C@H]4CCC3(C)C1[C@@H]2C (some centres undefined)
2. O=C(Nc1ccccc1)c1cc2c(cc1Cl)SC(NNCCO)=NS2(=O)=O
3. CC(=O)Oc1ccc2c(c1)CC[C@@H]1C2CC[C@]2(C)C(=O)NC(=O)CC12 (some centres undefined)
4. S=c1sscc1N1CCSc2ssc(=S)c21

[reply]
["2.37 µM (inactive)", "> 100 µM (inactive)", "> 100 µM (inactive)", "33.7 µM (inactive)"]
